Here we list compounds with their recorded Kd when tested on ERBB2.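 Also: kd values determined as follow-up on hits from a single-replicate KINOMEscan panel screen.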
Please state the figure in nM; there is no need to write the unit.

Inquiry: So what's the measured Kd for this one? `Clc1cc(Nc2ncnc3cc[nH]c23)ccc1OCc1ccccn1`
Reply text: 9

Inquiry: Follow-up entry: `COc1cc2ncnc(Nc3ccc(OCc4ccccc4Br)c(Cl)c3)c2cc1OC.Cl`
Reply text: 17

Inquiry: Follow-up entry: `CS(=O)(=O)CCNCc1nc(-c2ccc3ncnc(Nc4ccc(OCc5cccc(F)c5)c(Cl)c4)c3c2)cs1.Cl`
Reply text: 5.9

Inquiry: Follow-up entry: `Cl.c1ccc(Cn2ccc3cc(Nc4ncnc5ccccc45)ccc32)cc1`
Reply text: 14

Cited source for all entries: paper PMC5540273
